Source of measurements: patent US20240382600A1

# System: YAP-dependent transcription in SF268-MCAT_Luc_dox-i-shYAPLevy (Clone 13) cells
# Procedure Summary: YAP reporter gene activity assay (MCAT-Luc), SF268
# Type: cell-based
# Measurement Conditions: Homo sapiens, SF-268; SF268 MCAT_Luc, 24 hrs
Here, each record is paired with measured IC50 data.

Compound	IC50, nM
COc1ccc(C(=O)N2CCC(OC3CN(C(=O)[C@H]4CC[C@H](NC[C@]5(c6ccccc6)Oc6cc(F)c(Cl)c(-c7c(C(N)=O)ccc(OC)c7F)c6[C@@H]5C)CC4)C3)CC2)cc1N1CCC(=O)NC1=O (atropisomer, axis not shown)	3.1
COc1ccc(C(=O)N2CCC(CN3CCN(C(=O)[C@H]4CC[C@H](NC[C@]5(c6ccccc6)Oc6cc(F)c(Cl)c(-c7c(C(N)=O)ccc(OC)c7F)c6[C@@H]5C)CC4)CC3)CC2)cc1N1CCC(=O)NC1=O (atropisomer, axis not shown)	0.85
CN[C@@H](C)C(=O)N[C@H](C(=O)N1C[C@@H](NCC(=O)N[C@H]2CC[C@H](NC(=O)[C@H]3CC[C@H](NC[C@]4(c5ccccc5)Oc5cc(F)c(Cl)c(-c6c(C(N)=O)ccc(OC)c6F)c5[C@@H]4C)CC3)CC2)C[C@H]1C(=O)N[C@@H]1CCCc2ccccc21)C1CCCCC1 (atropisomer, axis not shown)	1.9
COc1ccc(C(=O)N2CCC(C3CCN(C(=O)[C@H]4CC[C@H](NC[C@]5(c6ccccc6)Oc6cc(F)c(Cl)c(-c7c(C(N)=O)ccc(OC)c7F)c6[C@@H]5C)CC4)CC3)CC2)cc1N1CCC(=O)NC1=O (atropisomer, axis not shown)	0.43

###

Here, each record is paired with measured IC50 data.
# Test System: Avi-humanTEAD4^217-434 / Cy5 labeled humanYAP^60-100 (Homo sapiens (Human))
# Procedure Summary: In-vitro biochemical TR-FRET assay (TEAD4/YAP)
# Measurement Conditions: 1 h at room temperature
Measurement Type: IC50 (nM)

Compound	Observed Measurement
COc1ccc(C(=O)N2CCN(CC3CCN(C(=O)[C@H]4CC[C@H](NC[C@]5(c6ccccc6)Oc6cc(F)c(Cl)c(-c7c(C(N)=O)ccc(OC)c7F)c6[C@@H]5C)CC4)CC3)CC2)cc1N1CCC(=O)NC1=O (atropisomer, axis not shown)	1.5
CNC(=O)c1cnc(OCCOCCn2cc(-c3ccc4c(c3)CN(C3CCC(=O)NC3=O)C4=O)nn2)c(F)c1-c1c(Cl)c(F)cc2c1C[C@](c1ccccc1)([C@@H]1CCCN1)O2 (stereo partly shown)	23
COc1ccc(C(N)=O)c(-c2c(Cl)c(F)cc3c2[C@H](C)[C@@](CN[C@H]2CC[C@H](C(=O)N4CCN(CC5CCN(C(=O)COc6ccc(C)c(N7CCC(=O)NC7=O)c6)CC5)CC4)CC2)(c2ccccc2)O3)c1F (atropisomer, axis not shown)	1
COc1ccc(C(=O)N2CCC(OC3CCN(CCNC(=O)[C@H]4CC[C@H](NC[C@]5(c6ccccc6)Oc6cc(F)c(Cl)c(-c7c(C(N)=O)ccc(OC)c7F)c6[C@@H]5C)CC4)CC3)CC2)cc1N1CCC(=O)NC1=O (atropisomer, axis not shown)	1.1

###

# Test System: Avi-humanTEAD4^217-434 / Cy5 labeled humanYAP^60-100 (Homo sapiens (Human), UniProt Q15561)
# Sequence (Q15561 217-434): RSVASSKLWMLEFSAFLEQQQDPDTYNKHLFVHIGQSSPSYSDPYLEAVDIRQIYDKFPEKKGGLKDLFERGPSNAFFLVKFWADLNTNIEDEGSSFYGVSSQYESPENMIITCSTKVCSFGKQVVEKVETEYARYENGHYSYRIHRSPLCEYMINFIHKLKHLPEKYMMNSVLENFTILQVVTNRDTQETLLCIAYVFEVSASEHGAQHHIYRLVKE
# Procedure Summary: In-vitro biochemical TR-FRET assay (TEAD4/YAP)
# Measurement Conditions: 1 h at room temperature
Measurement Type: IC50 (nM)

Molecule	Observed Measurement
COc1ccc(C(=O)NCCCCCc2cccc3c2CN(C2CCC(=O)NC2=O)C3=O)c(-c2c(Cl)c(F)cc3c2C[C@@](CN)(c2ccccc2)O3)c1F (stereo partly shown)	92
COc1ccc(C(N)=O)c(-c2c(Cl)c(F)cc3c2[C@H](C)[C@@](CN[C@H]2CC[C@H](C(=O)N4CCC(C5CCN(C(=O)COc6ccc(C)c(N7CCC(=O)NC7=O)c6)CC5)CC4)CC2)(c2ccccc2)O3)c1F (atropisomer, axis not shown)	2.1
COc1ccc(C(N)=O)c(-c2c(Cl)c(F)cc3c2[C@H](C)[C@@](CN[C@H]2CC[C@H](C(=O)N[C@H]4CC[C@H](NC(=O)COc5cc(-c6scnc6C)ccc5CNC(=O)[C@@H]5C[C@@H](O)CN5C(=O)[C@@H](NC(=O)C5(F)CC5)C(C)(C)C)CC4)CC2)(c2ccccc2)O3)c1F (atropisomer, axis not shown)	3
COc1ccc(C(=O)NCCCCCn2cc(-c3ccc4c(c3)CN(C3CCC(=O)NC3=O)C4=O)nn2)c(-c2c(Cl)c(F)cc3c2C[C@@](CN)(c2ccccc2)O3)c1F (stereo partly shown)	120

###

Here, each record is paired with measured DC50 data.
# Test System: TEAD1-GFP in HEK293A cells (Homo sapiens (Human), UniProt P28347)
# Sequence (P28347 whole entry): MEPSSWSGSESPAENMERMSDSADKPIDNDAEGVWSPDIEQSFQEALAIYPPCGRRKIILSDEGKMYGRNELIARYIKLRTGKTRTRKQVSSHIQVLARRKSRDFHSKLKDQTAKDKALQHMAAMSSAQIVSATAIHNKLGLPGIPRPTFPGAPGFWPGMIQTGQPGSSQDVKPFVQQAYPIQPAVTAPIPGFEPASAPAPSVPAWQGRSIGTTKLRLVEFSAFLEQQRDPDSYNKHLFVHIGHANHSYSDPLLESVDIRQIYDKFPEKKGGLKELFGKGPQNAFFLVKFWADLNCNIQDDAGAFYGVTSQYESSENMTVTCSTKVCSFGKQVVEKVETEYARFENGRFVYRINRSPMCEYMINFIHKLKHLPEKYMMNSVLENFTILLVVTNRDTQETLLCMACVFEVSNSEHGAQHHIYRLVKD
# Procedure Summary: TEAD1 protein abundance flow cytometry assay in HEK293A
# Type: cell-based
# Measurement Conditions: HEK293A TEAD1-GFP-CHYSEL-mCherry sensor cells, 24 h, GFP signal by flow cytometry
Measurement Type: DC50 (nM)

Molecule	Observed Measurement
COc1ccc(C(N)=O)c(-c2c(Cl)c(F)cc3c2[C@H](C)[C@@](CN[C@H]2CC[C@H](C(=O)N4CCC(CC5CCN(C(=O)COc6ccc(N7CCC(=O)NC7=O)cc6)CC5)CC4)CC2)(c2ccccc2)O3)c1F (atropisomer, axis not shown)	0.5
COc1ccc(C(N)=O)c(-c2c(Cl)c(F)cc3c2[C@H](C)[C@@](CN[C@H]2CC[C@H](C(=O)N4CCC(OC5CCN(C(=O)COc6cc(-c7scnc7C)ccc6CNC(=O)[C@@H]6C[C@@H](O)CN6C(=O)[C@@H](NC(=O)C6(F)CC6)C(C)(C)C)CC5)CC4)CC2)(c2ccccc2)O3)c1F (atropisomer, axis not shown)	1
CN[C@@H](C)C(=O)N[C@H](C(=O)N1C[C@@H](NCC(=O)N[C@H]2CC[C@H](NC(=O)[C@H]3CC[C@H](NC[C@]4(c5ccccc5)Oc5cc(F)c(Cl)c(-c6c(C(N)=O)ccc(OC)c6F)c5[C@@H]4C)CC3)CC2)C[C@H]1C(=O)N[C@@H]1CCCc2ccccc21)C1CCCCC1 (atropisomer, axis not shown)	2800

###

# Test System: TEAD1-GFP in HEK293A cells (Homo sapiens (Human), UniProt P28347)
# Procedure Summary: TEAD1 protein abundance flow cytometry assay in HEK293A
# Format: cell-based
# Measurement Conditions: HEK293A TEAD1-GFP-CHYSEL-mCherry sensor cells, 24 h, GFP signal by flow cytometry
# Experimental: Degradation of TEAD1 was measured in HEK293A cells (Invitrogen R70507) expressing TEAD1-GFP and mCherry from a stably integrated bicistronic TEAD1-GFP-CHYSEL-mCherry construct. Reduction of the GFP signal measured by flow cytometry served as readout for TEAD1 degradation after degrader treatment. […] TEAD1 signal for subsequent DC50 curves (concentration at 50% TAED1 degradation). GFP and RFP were read in the channels called FITC and PE, respectively. […]
Measurement Type: DC50

Compound	Observed Measurement
COc1ccc(C(N)=O)c(-c2c(Cl)c(F)cc3c2[C@H](C)[C@@](CN[C@H]2CC[C@H](C(=O)N4CCC(OC5CCN(C(=O)COc6ccc(N7CCC(=O)NC7=O)c(C)c6)CC5)CC4)CC2)(c2ccccc2)O3)c1F (atropisomer, axis not shown)	3 nM
COc1ccc(C(N)=O)c(-c2c(Cl)c(F)cc3c2[C@H](C)[C@@](CN[C@H]2CC[C@H](C(=O)N4CCN(CC5CCN(C(=O)COc6ccc(C)c(N7CCC(=O)NC7=O)c6)CC5)CC4)CC2)(c2ccccc2)O3)c1F (atropisomer, axis not shown)	0.4 nM
COc1ccc(C(N)=O)c(-c2c(Cl)c(F)cc3c2[C@H](C)[C@@](CN[C@H]2CC[C@H](C(=O)N[C@H]4CC[C@H](NC(=O)COc5cc(-c6scnc6C)ccc5CNC(=O)[C@@H]5C[C@@H](O)CN5C(=O)[C@@H](NC(=O)C5(F)CC5)C(C)(C)C)CC4)CC2)(c2ccccc2)O3)c1F (atropisomer, axis not shown)	9 nM
